half-life at 1 µM: recorded values
test-protocol: Stability in mouse hepatic microsomes
run-conditions: mouse, pooled liver microsomes, Half-life Mean, mouse hepatic microsomes, 1 µM

>>> result("CC(CSc1ccc(Cl)cc1)C(=O)O (stereo not shown)")
"> 1.67 h"

Can you look up the measured half-life at 1 µM of `Cn1c(C(=O)N[C@@H](C(=O)O)c2ccccc2)cc2cc(F)ccc21` for me?
> 1.67 h

Item `Cc1cc2c(c(C)c1Cl)N(CC(=O)O)C(=O)CO2` has what recorded half-life at 1 µM?
> 1.67 h

Consider the compound `Oc1ccc(-c2csc3nc(-c4ccccc4)nn23)c(O)c1` and give its measured half-life at 1 µM.
0.983 h

====

test-protocol: Stability in mouse hepatic microsomes
run-conditions: mouse, pooled liver microsomes, Half-life n=1, mouse hepatic microsomes, 1 µM
Overview of recorded half-life at 1 µM for various compounds

>>> result("Cc1cc2c(c(C)c1Cl)N(CC(=O)O)C(=O)CO2")
"> 1.67 h"
>>> result("CC(CSc1ccc(Cl)cc1)C(=O)O (stereo not shown)")
"> 1.67 h"
>>> result("Oc1ccc(-c2csc3nc(-c4ccccc4)nn23)c(O)c1")
"0.8 h"

Could you now consider this next compound?
Quick check: half-life at 1 µM of `Cn1c(C(=O)N[C@@H](C(=O)O)c2ccccc2)cc2cc(F)ccc21` ?
> 1.67 h

====

test-protocol: Stability in mouse hepatic microsomes
run-conditions: mouse hepatic microsomes
// Mean intrinsic clearance lookup, one value per entry

Some compounds with known Mean intrinsic clearance results, for comparison:
>>> result("Oc1ccc(-c2csc3nc(-c4ccccc4)nn23)c(O)c1")
"49 µL/min/mg microsome protein"
>>> result("COc1ccc2c(c1)[C@]13CCCC[C@@H]1[C@H](C2)N(C)CC3 [Dextromethorphan, reference compound]")
"97 µL/min/mg microsome protein"
>>> result("CC(CSc1ccc(Cl)cc1)C(=O)O (stereo not drawn)")
"< 28 µL/min/mg microsome protein"
>>> result("Cc1cc2c(c(C)c1Cl)N(CC(=O)O)C(=O)CO2")
"< 28 µL/min/mg microsome protein"
>>> result("Cn1c(C(=O)N[C@@H](C(=O)O)c2ccccc2)cc2cc(F)ccc21")
"< 28 µL/min/mg microsome protein"

Now for the compound whose Mean intrinsic clearance we want.
Endpoint output: Mean intrinsic clearance of Cc1ncc2n1-c1ccc(Cl)cc1C(c1ccccc1F)=NC2 [Midazolam, reference compound] . Value?
> 554 µL/min/mg microsome protein

====

target-of-assay: Pseudomonas fluorescens KMO (PfKMO) (Pseudomonas fluorescens, UniProt Q84HF5, C252S/C461S)
Construct: made in house; host or cells: E. coli BL21 (DE3)
Sequence (Q84HF5 whole entry C252S/C461S): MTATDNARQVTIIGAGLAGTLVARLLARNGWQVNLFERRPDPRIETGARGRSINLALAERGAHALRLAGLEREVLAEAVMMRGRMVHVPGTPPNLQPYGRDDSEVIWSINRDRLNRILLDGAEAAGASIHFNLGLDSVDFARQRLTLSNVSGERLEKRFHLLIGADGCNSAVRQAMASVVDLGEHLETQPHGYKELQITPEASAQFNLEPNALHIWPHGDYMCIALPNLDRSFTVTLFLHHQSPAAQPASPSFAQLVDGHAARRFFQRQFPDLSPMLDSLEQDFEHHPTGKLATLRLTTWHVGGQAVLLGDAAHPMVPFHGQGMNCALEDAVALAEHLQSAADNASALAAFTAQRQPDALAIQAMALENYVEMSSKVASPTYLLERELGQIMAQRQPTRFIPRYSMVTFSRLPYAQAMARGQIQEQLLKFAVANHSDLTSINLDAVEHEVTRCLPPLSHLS
test-protocol: biochemical
run-conditions: read-out: IC50 PfKMO
Description: A combination of ligand- and structural-based virtual screening approaches (see supporting information for details) was used to identify an initial library of >1000 compounds that may be suitable as potential KMO inhibitors. […] Supplementary Figure 1. […] KMO activity was measured in the presence of a range of inhibitor concentrations. […] 20 mM HEPES, 10 mM sodium acetate, pH 7.5, 2 mM DTT). KMO activity was measured in the presence of a range of inhibitor concentrations by monitoring the […]
property-measured: IC50 (µM)
Kindly answer with a numeric value in µM, unit omitted.

Value lookup for IC50; key = COc1ccc(-c2cn(CC(=O)O)c(=O)cn2)cc1 [compound 15]
6.3

====

target-of-assay: Homo sapiens KMO (HsKMO) (Homo sapiens, UniProt O15229)
Sequence (O15229 whole entry): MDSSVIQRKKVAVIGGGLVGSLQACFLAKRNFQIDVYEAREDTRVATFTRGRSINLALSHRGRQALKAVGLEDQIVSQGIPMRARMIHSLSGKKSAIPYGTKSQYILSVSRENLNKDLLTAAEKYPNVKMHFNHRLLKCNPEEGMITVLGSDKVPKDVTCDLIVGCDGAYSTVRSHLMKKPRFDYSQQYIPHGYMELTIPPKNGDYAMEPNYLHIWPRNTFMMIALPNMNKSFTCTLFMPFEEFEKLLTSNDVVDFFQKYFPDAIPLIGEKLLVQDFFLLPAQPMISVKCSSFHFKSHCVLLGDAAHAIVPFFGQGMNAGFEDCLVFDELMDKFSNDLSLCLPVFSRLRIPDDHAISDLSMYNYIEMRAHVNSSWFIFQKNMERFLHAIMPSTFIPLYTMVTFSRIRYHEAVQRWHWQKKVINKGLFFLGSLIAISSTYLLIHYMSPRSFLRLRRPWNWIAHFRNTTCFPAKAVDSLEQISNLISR
property-measured: IC50 (µM)
Numeric answer only, unit µM assumed.

Consider the reported IC50 for these compounds:
>>> result_number("O=C(O)c1ccc(-c2cccc(Cl)c2Cl)o1 [compound 9]")
39.6
>>> result_number("O=C(O)c1ccc(-c2cccc(Cl)c2)o1 [compound 17]")
442
>>> result_number("O=C(O)c1ccc(-c2ccc(Br)c(Cl)c2)o1 [compound 19]")
54.2
>>> result_number("Cc1ccc2c(c1)cc(C(=O)N[C@@H](C(=O)O)c1ccccc1)n2C [compound 7]")
21.3
>>> result_number("O=C(O)c1ccc(-c2ccc(F)c(Cl)c2)o1 [compound 18]")
193

Hi! What's the reported IC50 for O=C(O)c1ccc(-c2cc(C(F)(F)F)ccc2Cl)o1 [compound 12] on Homo sapiens KMO (HsKMO) (Homo sapiens, UniProt O15229)?
31.8

IC50 of O=C(O)c1ccc(-c2ccc(Cl)cc2Cl)o1 [compound 16] on Homo sapiens KMO (HsKMO) (Homo sapiens, UniProt O15229)?
207

====

test-protocol: Stability in mouse hepatic microsomes
run-conditions: mouse, microsomes, Half-life n=2, mouse hepatic microsomes, 1 µM
Attribute: half-life at 1 µM

>>> result("COc1ccc2c(c1)[C@]13CCCC[C@@H]1[C@H](C2)N(C)CC3 [Dextromethorphan, reference compound]")
"29 min"

Quick one: half-life at 1 µM for Cc1ncc2n1-c1ccc(Cl)cc1C(c1ccccc1F)=NC2 [Midazolam, reference compound] ?
< 5 min

====

System: MDR1 (P-glycoprotein)
test-protocol: in vitro
Type: in vitro ADME, canine
run-conditions: dog, MDCK-MDR1, pH 7.4, MDR1 MDCK; read-out: Recovery A>B n=1
The following compounds are listed with their measured recovery at 1 h, 10 µM values.

Solved entries (count: 4):
>>> result("Cn1c(C(=O)N[C@@H](C(=O)O)c2ccccc2)cc2cc(F)ccc21 [compound 5]")
"87%"
>>> result("CC[C@]1(O)C[C@@H]2CN(CCc3c([nH]c4ccccc34)[C@@](C(=O)OC)(c3cc4c(cc3OC)N(C)[C@H]3[C@@](O)(C(=O)OC)[C@H](OC(C)=O)[C@]5(CC)C=CCN6CC[C@]43[C@@H]65)C2)C1 [Vinblastine, reference compound]")
"55%"
>>> result("CC(CSc1ccc(Cl)cc1)C(=O)O (stereo not drawn) [compound 6]")
"68%"
>>> result("Cc1cc2c(c(C)c1Cl)N(CC(=O)O)C(=O)CO2 [compound 1]")
"107%"

Quick one: recovery at 1 h, 10 µM for Oc1ccc(-c2csc3nc(-c4ccccc4)nn23)c(O)c1 [compound 3] ?
15%

Look up recovery at 1 h, 10 µM for this compound: CC(C)NCC(O)COc1cccc2ccccc12 (stereo not drawn) [Propranolol, reference compound]
97%

====

test-protocol: in vitro
Format: in vitro ADME, canine
run-conditions: dog, MDCK, pH 7.4, Papp B>A n=1, wild type MDCK
Lab note: anything with Papp B→A at 1 h, 10 µM below 3 ×10⁻⁶ cm/s is marked Satisfied; values at 3 ×10⁻⁶ cm/s or higher are marked Not satisfied.

Here are 5 compounds together with their reported answers.
>>> class("Oc1ccc(-c2csc3nc(-c4ccccc4)nn23)c(O)c1 [compound 3]")
"Satisfied"
>>> class("CC(C)NCC(O)COc1cccc2ccccc12 (stereo not drawn) [Propranolol, reference compound]")
"Not satisfied"
>>> class("Cn1c(C(=O)N[C@@H](C(=O)O)c2ccccc2)cc2cc(F)ccc21 [compound 5]")
"Satisfied"
>>> class("CC[C@]1(O)C[C@@H]2CN(CCc3c([nH]c4ccccc34)[C@@](C(=O)OC)(c3cc4c(cc3OC)N(C)[C@H]3[C@@](O)(C(=O)OC)[C@H](OC(C)=O)[C@]5(CC)C=CCN6CC[C@]43[C@@H]65)C2)C1 [Vinblastine, reference compound]")
"Not satisfied"
>>> class("Cc1cc2c(c(C)c1Cl)N(CC(=O)O)C(=O)CO2 [compound 1]")
"Satisfied"

Please turn your attention to the following entry.
Input CC(CSc1ccc(Cl)cc1)C(=O)O (stereo not drawn) [compound 6] ; condition: Papp B→A at 1 h, 10 µM strictly below 3 ×10⁻⁶ cm/s. Does it hold?
Not satisfied

====

test-protocol: Kinetic solubility in PBS, pH 7.4 (2% DMSO)
Format: physicochemical
run-conditions: PBS with 2% DMSO, pH 7.4, aqueous buffer, kinetic from dmso stock, PBS, pH 7.4 (2% DMSO); read-out: Solubility Mean
Listing of entries alongside the reported log10(solubility at 2 h).
Remember, log10 of solubility at 2 h, in µM.

The cases that follow already have their log10(solubility at 2 h) on record.
>>> result_number("COC(=O)[C@H]1[C@H]2C[C@@H]3c4[nH]c5cc(OC)ccc5c4CCN3C[C@H]2C[C@@H](OC(=O)c2cc(OC)c(OC)c(OC)c2)[C@@H]1OC [Reserpine, reference compound]")
0.95
>>> result_number("Cn1c(C(=O)N[C@@H](C(=O)O)c2ccccc2)cc2cc(F)ccc21")
2.27
>>> result_number("Oc1ccc(-c2csc3nc(-c4ccccc4)nn23)c(O)c1")
1.83
>>> result_number("Cc1cc2c(c(C)c1Cl)N(CC(=O)O)C(=O)CO2")
2.29

--- query ---
Which log10(solubility at 2 h) value is on record for CC(CSc1ccc(Cl)cc1)C(=O)O (centres unmarked) ?
2.27

====

Test system: MDR1 (P-glycoprotein)
test-protocol: in vitro
Type: in vitro ADME, canine
run-conditions: dog, MDCK-MDR1, pH 7.4, Papp A>B n=1, MDR1 MDCK
Method: internal standard at each timepoint. […] including an analytical internal standard. Apparent permeability (Papp) values were determined from the relationship: […] Efflux ratios (Papp B>A / Papp A>B) were calculated for each compound from the […] order to confirm the involvement of MDR1 in any efflux seen, an “ef fective efflux ratio” (EER) was calculated by comparing compound efflux ratios (ER) in the two cell types, i.e. EER = ER (MDR1-MDCK)/ ER (wild-type MDCK). […]
Reported Papp A→B at 1 h, 10 µM values follow for various compounds
Field: numeric (×10⁻⁶ cm/s). Do not append units.

>>> result_number("Cc1cc2c(c(C)c1Cl)N(CC(=O)O)C(=O)CO2")
18
>>> result_number("CC(C)NCC(O)COc1cccc2ccccc12 (stereo not drawn) [Propranolol, reference compound]")
53
>>> result_number("Cn1c(C(=O)N[C@@H](C(=O)O)c2ccccc2)cc2cc(F)ccc21")
2.8
>>> result_number("CC(CSc1ccc(Cl)cc1)C(=O)O (stereo not drawn)")
40

Proceed to the following item.
Param item = `Oc1ccc(-c2csc3nc(-c4ccccc4)nn23)c(O)c1` ; retrieve measured Papp A→B at 1 h, 10 µM.
2.9
